# System tested: UniProtKB P25962
# Sequence (P25962 whole entry): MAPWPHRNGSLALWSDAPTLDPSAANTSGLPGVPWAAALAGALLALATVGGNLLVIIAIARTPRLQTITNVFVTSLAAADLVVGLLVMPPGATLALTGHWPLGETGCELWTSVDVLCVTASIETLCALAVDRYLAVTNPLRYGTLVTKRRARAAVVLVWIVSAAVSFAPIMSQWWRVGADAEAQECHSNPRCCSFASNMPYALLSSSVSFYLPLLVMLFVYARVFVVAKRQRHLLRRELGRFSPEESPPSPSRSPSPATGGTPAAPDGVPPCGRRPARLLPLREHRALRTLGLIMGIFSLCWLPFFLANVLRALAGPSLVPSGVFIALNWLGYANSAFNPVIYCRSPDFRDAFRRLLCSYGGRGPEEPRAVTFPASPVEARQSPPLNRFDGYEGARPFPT
# Assay remarks: cAMP accumulation
Endpoint: EC50 (nM)
Report only the number, with the unit nM understood.

What EC50 value was documented for this compound, C[C@H](Cc1ccc(OCC(=O)O)cc1)NC[C@H](O)c1cccc(Cl)c1 ?
0.692
